B1: EF-hand domain-containing protein 1 (Homo sapiens), Q5JVL4 (parent)
chain: MVSNPVHGLPFLPGTSFKDSTKTAFHRSQTLSYRNGYAIVRRPTVGIGGDRLQFNQLSQAELDELASKAPVLTYGQPKQAPPADFIPAHVAFDKKVLKFDAYFQEDVPMSTEEQYRIRQVNIYYYLEDDSMSVIEPVVENSGILQGKLIKRQRLAKNDRGDHYHWKDLNRGINITIYGKTFRVVDCDQFTQVFLESQGIELNPPEKMALDPYTELRKQPLRKYVTPSDFDQLKQFLTFDKQVLRFYAIWDDTDSMYGECRTYIIHYYLMDDTVEIREVHERNDGRDPFPLLMNRQRVPKVLVENAKNFPQCVLEISDQEVLEWYTAKDFIVGKSLTILGRTFFIYDCDPFTRRYYKEKFGITDLPRIDVSKREPPPVKQELPPYNGFGLVEDSAQNCFALIPKAPKKDVIKMLVNDNKVLRYLAVLESPIPEDKDRRFVFSYFLATDMISIFEPPVRNSGIIGGKYLGRTKVVKPYSTVDNPVYYGPSDFFIGAVIEVFGHRFIILDTDEYVLKYMESNAAQYSPEALASIQNHVRKREAPAPEAESKQTEKDPGVQELEALIDTIQKQLKDHSCKDNIREAFQIYDKEASGYVDRDMFFKICESLNVPVDDSLVKELIRMCSHGEGKINYYNFVRAFSN

Variants of: B1
conditionSet: with TCF4, P15884-3
Sequence (P15884 other isoform, or with tags, fused parts or gaps): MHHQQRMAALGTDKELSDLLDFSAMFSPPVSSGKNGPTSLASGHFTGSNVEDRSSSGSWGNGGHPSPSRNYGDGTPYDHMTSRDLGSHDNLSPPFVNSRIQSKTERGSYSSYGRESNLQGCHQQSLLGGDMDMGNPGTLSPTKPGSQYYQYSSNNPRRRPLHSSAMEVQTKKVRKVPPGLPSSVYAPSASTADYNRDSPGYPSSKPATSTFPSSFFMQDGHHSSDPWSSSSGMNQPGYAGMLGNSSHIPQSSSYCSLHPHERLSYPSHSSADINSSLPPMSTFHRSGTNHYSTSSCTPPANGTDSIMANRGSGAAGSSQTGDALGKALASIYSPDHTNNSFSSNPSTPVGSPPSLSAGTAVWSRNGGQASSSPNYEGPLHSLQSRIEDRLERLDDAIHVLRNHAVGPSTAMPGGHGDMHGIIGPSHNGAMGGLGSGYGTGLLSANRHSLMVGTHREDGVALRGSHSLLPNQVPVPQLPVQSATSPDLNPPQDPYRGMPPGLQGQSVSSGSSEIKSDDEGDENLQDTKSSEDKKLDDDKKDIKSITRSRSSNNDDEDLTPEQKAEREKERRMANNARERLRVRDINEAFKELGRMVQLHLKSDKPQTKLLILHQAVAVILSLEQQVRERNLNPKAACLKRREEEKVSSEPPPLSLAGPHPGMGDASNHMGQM

variantDesignation	effect of a mutation on the interaction
R159W	with no effect
M448T	with no effect
